# Test system: SN12C renal
# PROTOCOL: NCI tumour cell line growth inhibition, 48 h
MEASURE NAME: TGI

*Q* Please look up its TGI: COC1OC(COC(=O)NCCCCC(=O)C(F)(F)F)C(O)C(O)C1O (stereo unspecified)
*A* > 100 µM

*Q* Again, but for O=Cc1cc2c(o1)C(=O)c1ccccc1C2=O
*A* 0.779 µM

*Q* Again, but for CN(C)Cc1cc(N=Nc2ccccc2Cl)cc(CN(C)C)c1O
*A* > 100 µM

*Q* Again, but for CCOC(=O)c1cnn(-c2ccnc3c(C(F)(F)F)cccc23)c1N
*A* > 100 µM

*Q* Again, but for CC1CC2(CC[C@@H]1O)OCCO2 (stereo partly specified)
*A* > 100 µM

*Q* Again, but for Nc1nnc(-c2ccco2)c(-c2ccco2)n1
*A* > 100 µM

*Q* Again, but for CCSc1nc(COC(=O)NC)c(COC(=O)NC)n1C
*A* > 100 µM

*Q* Again, but for O=C(Nc1cc(Cl)c(Cl)cc1Cl)C(=O)C(C(=O)c1ccc(Cl)c(Cl)c1)C1OC(=O)c2ccccc21 (stereo unspecified)
*A* 52.3 µM

*Q* Again, but for COc1ccccc1-c1c(C)nn2c(NCc3ccccn3)cc(C)nc12
*A* > 50 µM

*Q* Again, but for O=C1C(N=Nc2ccc(-c3nc4ccccc4o3)cc2)NC(=S)N1c1ccccc1 (stereo unspecified)
*A* > 100 µM

*Q* Again, but for C/C(=N\NC(N)=O)C(CN(C)C)C(c1ccccc1)c1c(O)c2ccccc2oc1=O (stereo unspecified)
*A* > 100 µM
